procedure-details: qHTS assay to identify small molecule phospholipidosis (PLD) inducers (AID 1259344)
test-parameters: HepG2 phospholipidosis, LipidTOX Red imaging, 24 h; series mostly up to 38.3 µM
Inconclusive results are not listed. Calls of active or inactive are those of the source. Calls come from the whole dose curve; as a rule, active = well fitted activation curve with a large enough effect; inconclusive = small, poorly fitted or top-dose-only effect; inactive = flat fitted curve, though single readings scatter.
Permitted responses: active, inactive

Please review the entries below; each comes with its answer.
compound	classification
CN(C)c1nc(N(C)C)nc(N(C)C)n1	inactive
C[C@]12CC[C@H]3[C@@H](CCC4=CC(=O)CC[C@@]43C)[C@@H]1CC[C@@H]2C(=O)CO	inactive
O=C(/C=C/c1ccccc1)OCc1ccccc1	inactive
CN1C(C(=O)Nc2ccccn2)=C(O)c2ccccc2S1(=O)=O	inactive
Nc1ccccc1N	inactive
CC(C(=O)O)c1cccc(C(=O)c2ccccc2)c1 (stereo not drawn)	inactive
CCCc1c(OCCCCc2nn[nH]n2)ccc(C(C)=O)c1O	inactive
Nc1ccc(S(=O)(=O)Nc2cnc3ccccc3n2)cc1	inactive
Cc1cc2nc3c(=O)[nH]c(=O)nc-3n(C[C@H](O)[C@H](O)[C@H](O)CO)c2cc1C	inactive
COc1cccc2c1C(=O)c1c(O)c3c(c(O)c1C2=O)C[C@@](O)(C(=O)CO)C[C@@H]3O[C@H]1C[C@H](N)[C@H](O)[C@H](C)O1	inactive

Exercise: I would be grateful if you could indicate the recorded call for C[C@]12CCC(=O)C=C1CC[C@@H]1[C@@H]2C(=O)C[C@@]2(C)[C@H]1CC[C@]2(O)C(=O)CO .
Solution: inactive

Exercise: I would be grateful if you could indicate the recorded call for CC(C)OC(=O)C(C)(C)Oc1ccc(C(=O)c2ccc(Cl)cc2)cc1 .
Solution: inactive
